Target: Gastrin/cholecystokinin type B receptor (Mus musculus, UniProt P56481)
Sequence (P56481 whole entry): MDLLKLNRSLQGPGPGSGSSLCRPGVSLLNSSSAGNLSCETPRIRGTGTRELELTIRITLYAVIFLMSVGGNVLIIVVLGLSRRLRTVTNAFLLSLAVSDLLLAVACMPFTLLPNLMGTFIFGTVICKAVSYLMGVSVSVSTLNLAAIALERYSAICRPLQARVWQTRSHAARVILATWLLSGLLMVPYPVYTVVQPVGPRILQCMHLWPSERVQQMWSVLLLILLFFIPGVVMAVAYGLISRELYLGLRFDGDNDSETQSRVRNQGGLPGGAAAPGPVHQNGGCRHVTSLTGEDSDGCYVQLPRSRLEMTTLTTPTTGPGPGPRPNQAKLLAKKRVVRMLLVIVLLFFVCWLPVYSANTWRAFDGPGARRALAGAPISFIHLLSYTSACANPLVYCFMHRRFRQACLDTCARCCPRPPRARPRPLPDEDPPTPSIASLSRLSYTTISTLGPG
Reported Endpoint: IC50 (µM)

## Task Dear colleague, please send me the reported IC50 for CC(C)Oc1cccc(-n2c(C(C)Cc3c[nH]c4ccccc34)nc3ccccc3c2=O)c1 (stereo not drawn) when you can.
## Result 9.1

1: CC(C)Oc1cccc(-n2c(/C=C/c3c[nH]c4ccc(Br)cc34)nc3ccccc3c2=O)c1
2: CC(C)Oc1cccc(-n2c(/C=C/c3c[nH]c4ccccc34)nc3ccccc3c2=O)c1
## Task Which entry has a larger number for IC50, 1 or 2 ? Bench note: the answer is the label of the chosen record.
## Result 1
(1: 1.4 µM, 2: 0.43 µM)
